measurement.target: full-length MALT1 protein (Strep-MALT1(1-824)-His) (Homo sapiens (Human), UniProt Q9UDY8)
Sequence (Q9UDY8 whole entry): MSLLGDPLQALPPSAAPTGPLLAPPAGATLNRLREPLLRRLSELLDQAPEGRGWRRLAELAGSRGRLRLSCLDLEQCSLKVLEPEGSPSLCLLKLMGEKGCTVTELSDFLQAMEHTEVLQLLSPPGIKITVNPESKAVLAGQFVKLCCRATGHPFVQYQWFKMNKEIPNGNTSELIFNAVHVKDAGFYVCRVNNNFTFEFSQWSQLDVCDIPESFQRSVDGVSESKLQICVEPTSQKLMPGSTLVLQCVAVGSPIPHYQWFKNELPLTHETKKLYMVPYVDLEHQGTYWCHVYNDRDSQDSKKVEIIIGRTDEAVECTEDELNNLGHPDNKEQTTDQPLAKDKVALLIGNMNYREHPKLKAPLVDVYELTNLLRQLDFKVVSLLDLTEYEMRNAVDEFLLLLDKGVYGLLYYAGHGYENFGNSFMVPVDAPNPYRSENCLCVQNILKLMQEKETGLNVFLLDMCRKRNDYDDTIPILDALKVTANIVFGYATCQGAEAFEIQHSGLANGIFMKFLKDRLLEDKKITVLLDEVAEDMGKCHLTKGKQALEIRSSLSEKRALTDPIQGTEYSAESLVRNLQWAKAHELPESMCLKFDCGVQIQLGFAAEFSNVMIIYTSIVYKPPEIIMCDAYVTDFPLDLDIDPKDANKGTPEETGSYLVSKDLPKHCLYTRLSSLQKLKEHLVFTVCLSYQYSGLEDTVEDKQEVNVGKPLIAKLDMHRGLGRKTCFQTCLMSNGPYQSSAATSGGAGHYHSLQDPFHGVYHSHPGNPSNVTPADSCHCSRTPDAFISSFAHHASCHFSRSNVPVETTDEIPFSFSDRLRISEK
test.summary: MALT1 Biochemical Protease Assay (Ac-LRSR-AMC substrate)
details: 10 nM FL MALT1, 200 μM Ac-LRSR-AMC, 4 h at RT; read-out: MALT1_Biochemical activity (Ac-LRSR-amc) IC50
measured.property: IC50 (nM)

O=C(Nc1cnc(-n2nccn2)c(Cl)c1)c1cnn(-c2cccc3nc(C(F)F)ccc23)c1C(F)(F)F
3470
O=C(Nc1cnc(-n2nccn2)c(Br)c1)c1cnn(-c2cccc3ncccc23)c1C(F)(F)F
23
Cc1csc2c(-n3ncc(C(=O)Nc4cnc(-n5nccn5)c(C#N)c4)c3C(F)(F)F)ccnc12
52
C[C@@H](O)c1nccc2c(-n3ncc(C(=O)Nc4cnc(-n5nccn5)c(Cl)c4)c3C(F)(F)F)cccc12 (single isomer, unassigned)
58
N#Cc1cc(NC(=O)c2cnn(-c3cccc4ncccc34)c2C(F)(F)F)cnc1-n1nccn1
34

[A] Cc1nc2cccc(-n3ncc(C(=O)Nc4cnc(-n5nccn5)c(C#N)c4)c3C(F)(F)F)n2n1
[B] CN1C(=O)COc2c(Cl)cc(NC(=O)c3cnn(-c4cccc5ncccc45)c3C(F)(F)F)cc21
[C] Cc1ncn(-c2ccc(NC(=O)c3cnn(-c4cncc5ccccc45)c3C(F)(F)F)cc2Cl)n1
**Query** Ordering: ascending IC50. Answer by listing the labels in the requested order.
**Result** B, C, A
